// protein stability index lookup, one value per entry
# Tested on: Saccharomyces cerevisiae;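 also: PSI is a weighted mean of sequencing reads over stability bins, variants kept only with over 10 reads, mCherry proximal and sfGFP distal, peptide attached via GGGS linker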
# ASSAY_DETAILS: protein stability index of tFT-peptide fusion (C-terminal peptide) (PSI (0-1 scale)); higher = more stable (slower turnover)
# EXPERIMENTAL_CONDITIONS: genetic background: wild type; temperature: 30 C
I'd appreciate a reply containing only the number, no unit.

Solved cases below.
> print(dat)
   sequence.string  result.number
1     APPPPPIPAPPP          0.714
2     RSTLSPSPRPSP          0.674
3     PSFLPLPLPSSF          0.718
4     ATRRYQYSPHKV          0.651
5     GGRRGCFARWAR          0.697
6     IFIVLDFRCVSS          0.339

Would you kindly look at the next entry?
Task: Given the entry RGCTVHSLNSSY , report its measured protein stability index.
Output: 0.676
